- System: HCT-116
- Test: Cytotoxicity by SRB assay in HCT-116 cells
- Type: cell-based, human
- Measurement Conditions: Homo sapiens, HCT-116; 72 h; prepared in DMA; w/o GSH; read-out: IC50 HCT-116 w/o GSH
- Method: The fraction of cell survival was calculated as follows. Survival fraction=(OD treated−blank)/(OD control−blank). […] Each experiment was repeated three times.
Value Type: IC50 (µM)
Reply with just the number (in µM).

Molecule	System	IC50 [µM]
CCc1c2c(nc3ccc(OC(=O)N4CCC(N5CCCCC5)CC4)cc13)-c1cc3c(c(=O)n1C2)COC(=O)[C@]3(O)CC [Irinotecan (39), irinotecan, reference compound]	HCT-116	0.36

Now consider a different molecule.
The reported IC50 of the molecule O=C(CCc1ccc(O)cc1)c1c(O)cc(OCCOCCOCCS)cc1O was 15.5

---

- Test system: NHDF
- Test: Cytotoxicity by SRB assay in low GLUT-1 normal cell line NHDF
- Format: cell-based
- Measurement Conditions: Homo sapiens, low expression GLUT-1 normal cell line
Value Type: IC50 (µM)
Give just the numeric value; µM need not be written.

Compound	IC50, µM
O=C(CCCSSCCOCCOCCOc1cc(O)c(C(=O)CCc2ccc(O)cc2)c(O)c1)OCn1cc(F)c(=O)[nH]c1=O [Compound 7]	90

// IC50 lookup, compound = O=c1[nH]cc(F)c(=O)[nH]1 [5-FU, 5-fluorouracil, reference compound] , result: 70.4

---

- Test: Human plasma stability (RP-HPLC)
- Format: in vitro ADME
- Measurement Conditions: 95% human plasma, 37° C.
Value Type: half-life
Enter the number, and then the unit.

The compound listed as O=C(CCc1cn(CCOCCOCCOc2cc(O)c(C(=O)CCc3ccc(O)cc3)c(O)c2)nn1)OCn1cc(F)c(=O)[nH]c1=O has a reported half-life of 3.6 h

---

- Test: Human plasma stability (RP-HPLC)
- Type: in vitro ADME
- Measurement Conditions: 95% human plasma, 37° C.
As shown below, each of these compounds has a reported half-life in human plasma value.

Compound	Value Type	Data Value
CCc1c2c(nc3ccc(OC(=O)OCCSSCCOCCOCCOc4ccc(O)c(C(=O)CCc5ccc(O)cc5)c4O)cc13)-c1cc3c(c(=O)n1C2)COC(=O)[C@]3(O)CC [Compound 31]	half-life in human plasma	50 min
CCc1c2c(nc3ccc(OC(=O)OCCSSCCOCCOCCOc4ccc(O)c(C(=O)CCc5ccc(O)cc5)c4O[C@@H]4O[C@H](CO)[C@@H](O)[C@H](O)[C@H]4O)cc13)-c1cc3c(c(=O)n1C2)COC(=O)[C@]3(O)CC [Compound 30]	half-life in human plasma	20 min
O=C(CCCSSCCOCCOCCOc1cc(O)c(C(=O)CCc2ccc(O)cc2)c(O)c1)OCn1cc(F)c(=O)[nH]c1=O [Compound 7]	half-life in human plasma	780 min

Query compound follows.
Data point: O=C(CCCCCN1C(=O)CC(SCCOCCOCCOc2cc(O)c(C(=O)CCc3ccc(O)cc3)c(O)c2)C1=O)OCn1cc(F)c(=O)[nH]c1=O (stereo not shown) [Compound 5] ; half-life in human plasma = 48 min

---

- Test: Stability and drug release in GSH (RP-HPLC)
- Type: in vitro ADME
- Measurement Conditions: PBS containing GSH, pH 7.4, highly reductive environments; read-out: half-lives in highly reductive environments
Value Type: half-life at 2.5 mM

Molecule	half-life at 2.5 mM
O=C(CCCSSCCOCCOCCOc1cc(O)c(C(=O)CCc2ccc(O)cc2)c(O)c1)OCn1cc(F)c(=O)[nH]c1=O [Compound 7]	< 5 h

Record O=C(CCCSSCCOCCOCCOc1cc(O)c(C(=O)CCc2ccc(O)cc2)c(O[C@@H]2O[C@H](CO)[C@@H](O)C(O)[C@H]2O)c1)OCn1cc(F)c(=O)[nH]c1=O (some centres unmarked) [Compound 6] , field half-life at 2.5 mM: < 5 h

---

- Test: Stability and drug release in GSH (RP-HPLC)
- Type: in vitro ADME
- Measurement Conditions: PBS containing 1 mM GSH, pH 7.4, half-life at 1 mM GSH, 1 mM GSH, PBS pH 7.4
- Method: […] After incubation for the indicated time, samples were centrifuged to collect the clear supernatant and stored at −30° C. until analysis. RP-HPLC injections were carried out at the specified conditions, and the area of peak was integrated for further calculation.
Value Type: half-life at 2.5 mM (h)
Please give a number only; it is taken to be in h.

Entry O=C(CCCSSCCOCCOCCOc1cc(O)c(C(=O)CCc2ccc(O)cc2)c(O)c1)OCn1cc(F)c(=O)[nH]c1=O — recorded half-life at 2.5 mM = 10.3

---

- Test system: HCT-116
- Test: Cytotoxicity by SRB assay in HCT-116 cells
- Assay type: cell-based, human
- Measurement Conditions: Homo sapiens, HCT-116; 72 h; prepared in DMA; w/o GSH; read-out: IC50 HCT-116 w/o GSH
Reported IC50 is given for each of the following compounds.

Worked cases, IC50 given:
Compound	IC50
O=C(CCc1ccc(O)cc1)c1c(O)cc(OCCOCCOCCS)cc1O[C@@H]1O[C@H](CO)[C@@H](O)C(O)[C@H]1O (stereo partly drawn) [Compound 16]	> 100 µM
O=C(CCc1ccc(O)cc1)c1c(O)cc(O)cc1O [Phloretin (3), phloretin, reference compound]	> 100 µM

The record that follows has no IC50 shown yet.
Memo: O=C(CCc1ccc(O)cc1)c1c(O)cc(O)cc1O[C@@H]1O[C@H](CO)[C@@H](O)[C@H](O)[C@H]1O [Phlorizin (2), phlorizin, reference compound] , reported IC50: > 100 µM
